# pKi against Muscarinic acetylcholine receptor M3 (Homo sapiens), merged from multiple literature sources
The read-out pKi is expressed as -log10 of concentration in moles per litre.

Please review the entries below; each comes with its answer.
CS(=O)(=O)Nc1cc([C@@H](O)CNCCCCCCCCCN2CCC(OC(=O)Nc3ccccc3-c3cccc(O)c3)CC2)ccc1O
8.43
COc1ccc(NC(=O)CCN2CCC(OC(=O)Nc3ccccc3-c3ccccc3)CC2)cc1CCNC[C@H](O)c1ccc(O)c2[nH]c(=O)ccc12
8.70
Cc1c(NC2CC2)nc(C2CCC2)nc1N1CCCCCC1
7.40
O=C(CCN1CCC(OC(=O)Nc2ccccc2-c2ccccc2)CC1)Nc1ccc(CNC[C@H](O)c2ccc(O)c3[nH]c(=O)ccc23)c(Cl)c1
9.70
CS(=O)(=O)Nc1cc([C@@H](O)CNCCc2ccc(OCCCN3CCC(OC(=O)Nc4ccccc4-c4ccc(O)c(Cl)c4)CC3)cc2)ccc1O
8.51
CN1CCC(OC(=O)Nc2ccccc2-c2ccccc2)CC1
7.66
NC1CCCC(NC(=O)[C@H]2CCCN2C(=O)[C@@H]2CCCN2C(=O)CC(c2ccccc2)(c2ccccc2)c2ccccc2)C1 (stereo partly specified)
6.77
O=C(CCN1CCCc2ccccc21)N1CCCC1
5.54

# evaluate next
The compound CN(C)CCNC(=O)C1=C(Cc2ccccn2)c2ccccc2C1 showed pKi equal to 4.62

----------
pKi: −log10 of the molar value.
# pKi against Muscarinic acetylcholine receptor M3 (Homo sapiens, UniProt P20309), merged from multiple literature sources
# Sequence (P20309 whole entry): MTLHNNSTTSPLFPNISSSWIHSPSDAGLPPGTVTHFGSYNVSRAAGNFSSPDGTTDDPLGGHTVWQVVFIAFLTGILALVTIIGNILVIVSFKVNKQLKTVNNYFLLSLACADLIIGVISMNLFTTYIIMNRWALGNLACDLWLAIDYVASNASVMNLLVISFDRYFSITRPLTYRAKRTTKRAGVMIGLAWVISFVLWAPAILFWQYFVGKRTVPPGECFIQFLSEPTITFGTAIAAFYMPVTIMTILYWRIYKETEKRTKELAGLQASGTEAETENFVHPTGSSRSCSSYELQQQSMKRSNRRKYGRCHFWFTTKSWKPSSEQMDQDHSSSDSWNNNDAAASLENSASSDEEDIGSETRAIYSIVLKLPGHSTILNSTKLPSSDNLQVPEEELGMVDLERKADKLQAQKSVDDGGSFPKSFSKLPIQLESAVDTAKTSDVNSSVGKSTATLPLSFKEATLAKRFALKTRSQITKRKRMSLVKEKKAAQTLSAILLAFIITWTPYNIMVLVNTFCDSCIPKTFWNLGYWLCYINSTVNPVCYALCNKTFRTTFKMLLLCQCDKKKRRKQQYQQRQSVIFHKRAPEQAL

Please review the entries below; each comes with its answer.
CN1CCC[C@H]1[C@H]1CNC(=O)O1
< 4.00
COc1ccc(NC(=O)N2CCN(c3ccccc3F)CC2)cc1N1CCN(C)CC1
< 5.00
C[C@H]1CN(C(=O)c2ccc(-c3ccc(OC(F)(F)F)cc3)cc2)CCN1C(=O)c1ccc2cc[nH]c2c1
< 5.00
N#Cc1cc(F)cc(C#Cc2csc(CF)n2)c1
< 5.00

# evaluate next
# lookup: COc1cccc(-c2ccc(C(=O)N3CCN(C(=O)c4ccc5cc[nH]c5c4)[C@@H](C)C3)cc2)c1 on Muscarinic acetylcholine receptor M3 (Homo sapiens, UniProt P20309), pKi = < 5.00

----------
# Ki against Muscarinic acetylcholine receptor M3 (Homo sapiens, UniProt P20309), merged from multiple literature sources

Please review the entries below; each comes with its answer.
N#Cc1cc(F)cc(C#Cc2csc(F)n2)c1
> 10 µM
CN1CC(Oc2nc3ccccc3n2-c2ccccc2)C1
> 1 µM

# lookup: Cn1ccc2c(NC(=O)CCN3CCCc4ccccc43)cccc21 on Muscarinic acetylcholine receptor M3 (Homo sapiens, UniProt P20309), Ki = > 100 µM

# lookup: COc1ccc(NC(=O)N2CCN(c3ccc(-c4ccccc4)cc3)CC2)cc1N1CCN(C)CC1 on Muscarinic acetylcholine receptor M3 (Homo sapiens, UniProt P20309), Ki = > 10 µM

# lookup: COc1ccc(NC(=O)c2ccc(-c3ccc(-c4noc(C)n4)cc3C)cc2)cc1N1CCN(C)CC1 on Muscarinic acetylcholine receptor M3 (Homo sapiens, UniProt P20309), Ki = > 10 µM

----------
# Ki against Muscarinic acetylcholine receptor M3 (Homo sapiens, UniProt P20309), merged from multiple literature sources
# number only, unit µM dropped from output

Please review the entries below; each comes with its answer.
CCCCCN1CCC(OC(=O)Nc2ccccc2-c2ccccc2)CC1
0.014
CCCCCC1CCN(CCCN2C(=O)CCc3ccccc32)CC1
1.35
Cc1c(NCc2ccccc2)nc(C2CC2)nc1NC1CC1
0.2

# lookup: CS(=O)(=O)Nc1cc([C@@H](O)CNCCCCCCCCCN2CCC(OC(=O)Nc3ccccc3-c3cccc(F)c3O)CC2)ccc1O on Muscarinic acetylcholine receptor M3 (Homo sapiens, UniProt P20309), Ki = 0.01

# lookup: CC(C1=C(CCN(C)C)Cc2ccc(F)cc21)c1ccccn1 (stereo not given) on Muscarinic acetylcholine receptor M3 (Homo sapiens, UniProt P20309), Ki = 0.263

# lookup: CC(=O)OCCCCCCCCCCCCOc1nsnc1C1=CCCN(C)C1 on Muscarinic acetylcholine receptor M3 (Homo sapiens, UniProt P20309), Ki = 0.126

# lookup: CN(CCCC(O)(c1ccccc1)c1ccccc1)CCN(C)CCCC(O)(c1ccccc1)c1ccccc1 on Muscarinic acetylcholine receptor M3 (Homo sapiens, UniProt P20309), Ki = 380

# lookup: CCOC(=O)N(CC)CCCCC1CCN(CC(=O)N2c3ccccc3NC(=O)c3ccccc32)CC1 on Muscarinic acetylcholine receptor M3 (Homo sapiens, UniProt P20309), Ki = 0.0392

# lookup: CC(C1=C(CN(C)C)Cc2ccccc21)c1ccccn1 (stereo not given) on Muscarinic acetylcholine receptor M3 (Homo sapiens, UniProt P20309), Ki = 0.0316

# lookup: FC(F)(F)c1cc(Oc2nccc3ccsc23)ccc1-c1cccc2nccn12 on Muscarinic acetylcholine receptor M3 (Homo sapiens, UniProt P20309), Ki = 2.7

----------
# pKi against Muscarinic acetylcholine receptor M3 (Homo sapiens), merged from multiple literature sources
The read-out pKi is expressed as -log10 of concentration in moles per litre.

Please review the entries below; each comes with its answer.
Cn1ccc(NC(=O)CCN2CCCc3ccccc32)n1
4.59
CCCCCCCCCN1CCC(OC(=O)Nc2ccccc2-c2ccccc2)CC1
8.02

The compound O=C(CCN1CCCc2ccccc21)Nc1ccccc1 showed pKi equal to 6.11

The compound C[N+]1(C)CCC[C@H]1[C@H]1C[S+]([O-])[C@](c2ccccc2)(C2CCCCC2)O1.[I-] (stereo in doubt; (-)-14) showed pKi equal to 6.49

----------
# pKi against Muscarinic acetylcholine receptor M3 (Homo sapiens), merged from multiple literature sources
The read-out pKi is expressed as -log10 of concentration in moles per litre.

C=C(c1ccc(S(=O)(=O)c2ccc(OC)cc2)cc1)C1CCN(C2CCN(C(=O)CCC)CC2)CC1
6.92
COc1nsnc1OCCCCCCCCCCCCOc1nsnc1C1=CCCN(C)C1
7.10

# evaluate next
# lookup: NCC1CCN(C(=O)[C@H]2CCCN2C(=O)[C@@H]2CCCN2C(=O)CC(c2ccccc2)(c2ccccc2)c2ccccc2)CC1 on Muscarinic acetylcholine receptor M3 (Homo sapiens), pKi = 6.82

----------
# pKi against UniProtKB P20309, merged from multiple literature sources
The read-out pKi is expressed as -log10 of concentration in moles per litre.

Please review the entries below; each comes with its answer.
Oc1cccc(F)c1-n1nc(OC2CCNCC2)c2ccccc21
8.00
Cc1c(NC2CC2)nc(C(C)C)nc1N1CCCCCC1
7.60
CS(=O)(=O)Nc1cc([C@@H](O)CNCCc2ccc(OCCN3CCC(OC(=O)Nc4ccccc4-c4ccc(O)c(Cl)c4)CC3)cc2)ccc1O
7.44
CN1CCC[C@H]1[C@H]1C[S+]([O-])[C@@](c2ccccc2)(C2CCCCC2)O1 (stereo in doubt; (+)-7)
7.74
C1C2C3CC4C2C2C1C3[C@H](NCC13C5C6C7C5C1C7C63)C42 (stereo not given in full)
6.33
CN1CCC(C2CCN(CCCC(O)(c3ccccc3)c3ccccc3)CC2)CC1
5.28
COC1CN(C(=O)CCN2CCCc3ccccc32)C1
4.49
NCCCCCCN1CCC(OC(=O)Nc2ccccc2-c2ccccc2)CC1
7.72

# evaluate next
# lookup: O=C(Nc1ccccc1-c1ccccc1)OC1CCNCC1 on UniProtKB P20309, pKi = 7.34

----------
# pKi against UniProtKB P20309, merged from multiple literature sources
The read-out pKi is expressed as -log10 of concentration in moles per litre.

CC1CCN(C(=O)CCN2CCCc3ccccc32)CC1
6.01
OC(CCCN1CCC(C2CCN(CCCC(O)(c3ccccc3)c3ccccc3)CC2)CC1)(c1ccccc1)c1ccccc1
6.14
C[N+]1(CC#CCOC2=NOCC2)CCc2ccccc2C1 (configuration not stated)
6.05
C[C@@H](C1=C(CCN(C)C)Cc2ccccc21)c1ccccn1
6.86
CCCCN1CCC(COC(=O)c2ccc(N)c(OC)c2)CC1
5.96

# evaluate next
The molecule CCCCCCCCCCCCCCCC(OC(=O)C(CCCCN(O)C(C)=O)NC(=O)c1coc(-c2ccccc2O)n1)C(C)C(=O)NC1CCCCN(O)C1=O (configuration not stated) showed pKi equal to 5.88
